- System: HCT-15 colon
- measurement-protocol: NCI tumour cell line growth inhibition, 48 h
Please respond with reported TGI for every item in the list.

Past entries and their recorded results:
# compound, TGI
measured = [
    ("CNC(=O)NCCN1CC2CCC(CC2)C1", "> 10 µM"),
    ("[N-]=[N+]=Nc1c(Cl)c(Cl)nc2ccccc12", "> 100 µM"),
    ("Cn1ccc(C(=O)NCCN(CCNC(=O)c2ccn(C)c(=O)c2O)CCNC(=O)c2ccn(C)c(=O)c2O)c(O)c1=O", "> 100 µM"),
    ("OC[P+](CO)(CO)C12CC3CC(CC(C3)C1)C2", "> 100 µM"),
    ("COc1ccc(Nc2cc(C)nc(NCc3ccccc3)n2)cc1", "11.9 µM"),
    ("C=C(C)[C@@]1(O)CCCC[C@@H]1CC(Sc1ccccc1)Sc1ccccc1", "33.3 µM"),
]

Give measured TGI for every item shown.
1. CC[C@@H](C(=O)[C@H](C)[C@H](O)[C@@H](C)[C@H]1O[C@H]([C@@H](CC)C(=O)N(CC)CC)CC[C@H]1C)C1O[C@]2(C=C[C@@H](O)[C@]3(CC[C@@](C)([C@H]4CC[C@](O)(CC)[C@H](C)O4)O3)O2)[C@H](C)C[C@@H]1C (some centres undefined)
2. O=c1c2ccccc2nc2n1-c1ccccc1SC2
3. CC(=O)C1Cn2c(=O)c3cc4ccccc4cc3c(=O)n2C=C1C (centres undefined)

Given back:
1: 8.28 µM; 2: > 100 µM; 3: > 100 µM
